tested on: IGROV1 ovarian; experiment: NCI tumour cell line growth inhibition, 48 h; in the data active = GI50 below about 0.43 µM; inactive = the rest
Choose one outcome from this list and give only that: active, inactive

Previously resolved entries follow.
CC(=O)[O-].CC(=O)[O-].CC(=O)[O-].CC(=O)[O-].[Mo+2].[Mo+2]: inactive
O=C(c1ccc2ccccc2c1)c1c(C(F)(F)F)n([O-])c2ccc(Cl)cc2[n+]1=O: active
COCCOCCOCc1n(Cc2ccc3ccccc3n2)c2ccccc2[n+]1Cc1ccc2ccccc2c1: active

# evaluate next
Look up the recorded call for O=C1c2cccnc2-c2nc(-c3ccncc3)cc3c2c1nc1ccccc13 in this test.
inactive

====

tested on: MOLT-4 leukemia; assay: NCI tumour cell line growth inhibition, 48 h
MEASUREMENT LABEL: TGI

Provide TGI values for the following items, in order.
1. CC(=O)OC1COC(n2c(=S)n(-c3ccccc3)c(=O)c3cc(Br)ccc32)C(OC(C)=O)C1OC(C)=O (stereo unspecified)
2. Cn1c([N+](=O)[O-])cnc1/C=C1\Oc2cc(Cl)ccc2C1=O
3. CO[C@]12CC(=O)C3(C(C[C@H]4CC5CC=C6C[C@@H](OC(C)=O)CC[C@]6(OC(C)=O)C5C[C@@]43C)C1)C1C[C@H]3[C@@H]4CC=C5C[C@@H](OC(C)=O)CC[C@]5(OC(C)=O)[C@H]4CC[C@]3(C)C12 (stereo partly specified)
4. CC(C)c1ccccc1NC(=O)/C(Cl)=C1/Sc2ccccc2NC1=O

> 100 µM
2.32 µM
63.3 µM
79.8 µM

Provide TGI values for the following items, in order.
1. COc1cc(C2SCC(=O)N2c2ccc(NC(=O)c3ccc(N4C(=O)CSC4c4cc(OC)c(OC)c(OC)c4)cc3)cc2)cc(OC)c1OC (stereo unspecified)
2. O=[N+]([O-])/C(C(Cl)=C(Cl)Cl)=C(\Nc1cccc2cccnc12)SCc1ccccc1

["> 100 µM", "14.4 µM"]

====

Task for the reader: assign each of the following compounds its reported TGI.
system: SF-268 CNS; experiment: NCI tumour cell line growth inhibition, 48 h

CC(=O)OC1COC(n2c(=S)n(-c3ccccc3)c(=O)c3cc(Br)ccc32)C(OC(C)=O)C1OC(C)=O (centres undefined): > 100 µM
CCN(CCO)CC1COc2ccccc2O1 (centres undefined): > 100 µM

Provide TGI values for the following items, in order.
1. O=P(c1ccccc1)(c1ccccc1)N1O[C@@H](c2ccccc2)C=C[C@H]1c1ccccc1
2. NC(N)=NS(=O)(=O)c1ccc(NC(=O)c2cccc3c(Nc4ccc(S(N)(=O)=O)cc4)c4ccccc4nc23)cc1

1: 26.2 µM; 2: > 100 µM

====

tested on: SF-268 CNS; assay: NCI tumour cell line growth inhibition, 48 h
MEASUREMENT LABEL: GI50

Some molecules with recorded GI50:
Cc1ncc(C(=O)Nc2ccc(CN3CCN(C)CC3)c(C(F)(F)F)c2)cc1C#Cc1cnc(NC2CC2)c2ncccc12: 0.755 µM
CC1CCCc2c1nn(C(=O)/C=C(\N)c1ccccc1)c2N (stereo unspecified): 9.61 µM

Provide GI50 values for the following items, in order.
1. CC(=O)[CH-]C(C)=O.[CH2-]C.[CH2-]C.[Tl+3]
2. COc1ccccc1/C=C/C(=O)/C=C/c1ccccc1O

1: > 100 µM; 2: 1.34 µM

Provide GI50 values for the following items, in order.
1. C[C@H](Cn1ncnn1)Nc1ncc2cc(Oc3ccc(F)cc3F)c(=O)n(C)c2n1
2. O=c1c2c3c(sc2n2c(-c4cc(-c5ccccc5)nn4-c4ccccc4)nnc2n1Cc1ccccc1)CCCC3

["> 25 µM", "> 100 µM"]

Reference for the values: PubChem BioAssay (NCI)
